Assay: protein stability index of a GFP-peptide fusion (GPS, HEK-293T) (PSI 1-6); higher = more stable;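 note: 24-mer peptide tiles fused after GFP, lentivirally expressed, FACS-sorted into six equal bins by GFP/DsRed ratio, decoded by Illumina sequencing, PSI is the read-weighted mean bin number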
Settings: treatment: MLN4924 1 uM, 8 h; c terminus: a fixed tail appended
PARAMETER: protein stability index
Reply with just the number.

protein stability index reading for RLPGGGWTLRRTKELRKDYQGPGT [DYRK1B] : 3.43

Summary for this sequence, AAPGALGSLHAGGARLVAACSAWL [AUH] : protein stability index is 2.39

The sequence listed as KCCGMRNTDVSMENMVTVGFFSCM [KCNK9] shows protein stability index equal to 2.51

Entry SDAEAVSTRWEVIAEDGTKEIESQ [TAF7L] ; protein stability index = 5.48

Given item RKTVCHNGVLGLSRLLFFLLGFLR [LPCAT4] , the value recorded as its protein stability index is 3.04

Kindly note the recorded protein stability index for MGTSHGITRPSPRRSNSPDKFKRP [CCDC6] , which is 4.89

# sequence AVVASSVNSYYSSPAQQVPKNPAL [TOR1AIP2] ; its protein stability index = 3.46

Kindly note the recorded protein stability index for HSFELDEKALASILLQDHIRDLDV [ATL3] , which is 3.26

Looking up TPNSAGGPGAHILRRKSPASGQGP [ADAMTS4] , I see its protein stability index listed as 4.93

Looking up RVSNPGRLAELLLLETDAGPAASE [GADD45A] , I found its protein stability index recorded as 4.28

Value of measured protein stability index for the entry GQALLTHLYQSSARRYAGPLHHQT [ELAVL3] : 2.71

Measured protein stability index of QSVENCPEDLAQLEELIDMAVLEE [RPAIN] : 5.27

The reported protein stability index of the sequence RALQAALAESGGSPDVLQMLKIHR [TRADD] was 2.91

* * *

Experiment: protein stability index of a GFP-peptide fusion (GPS, HEK-293T) (PSI 1-6); higher = more stable
Conditions: treatment: MLN4924 1 uM, 8 h; c terminus: a fixed tail appended
PARAMETER: protein stability index
The answer should be written as a number, with no unit following it.

GET /value?item= LVQTTDFFYPLVEDPYMMGRIACA [SEPHS2] &field=protein stability index returns 2.23

Short answer for KARSNSTLSKSEYMVIEEGGMNHS [KCNA3] : protein stability index was 4.33

Entry LFGTIAYLPPERIREKSRLFDTKH [RIPK4] , protein stability index reported as 2.57

Entry PGYLPYSPEPPSLYGALNPQYEFK [IRX6] — recorded protein stability index = 3.16

Entry under test: GGGPGDGGGADTGTGGEEVEALQL [FBXO33] . Its protein stability index was 5.32

Note to self: protein stability index recorded for GSNLDDAKGLAESLELPKAIQDQL [FANCE] was 5.3

Form: sequence = AMVTADSKYCYGPQGSRSPYIPPH [FKBP8] ; protein stability index = 3.13

Entry ARHLREYQELLNVKMALDIEIATY [PRPH] , protein stability index reported as 2.4

Reported protein stability index for QTVDGKHQDLKYISPETMVALLTG [CDC25B] was 2.8

protein stability index reported for this sequence FFLAILSCSEICYTFIIVPKMLVD [OR10K2] : 2.89

Noted for NVSVMHKSLDNMPNDEHWKALSRK [FBXO33] : its protein stability index reads 4.03

Measured protein stability index of KDRECQSQSLALKEQNNLKQLEFG [ZNF8] : 4.78

Documented protein stability index of APDAHFTVDKQNISLWPREPPPKS [CD207] : 4.78

* * *

Record form. Attribute: protein stability index. Fill in for each entry.
Assay: protein stability index of a GFP-peptide fusion (GPS, HEK-293T) (PSI 1-6); higher = more stable
Settings: treatment: DMSO; c terminus: a fixed tail appended
Give the figure by itself; no unit, no explanation.

The measured protein stability index associated with LAGPNDRSDVEKGGKIIMPPSALD [UFD1] reads 4.77

Reported protein stability index for WLPESDCETVTCCLFSERDAAGAP [SMAD6] was 3.72

// sample DLLKFEKKFQSEKAAGSVSKSTQF [FIS1] , its protein stability index was 3.82

Item: GSNLDDAKGLAESLELPKAIQDQL [FANCE] | protein stability index: 5.08

sequence AFERQQVENRVVEEAKGLLDKVKD [ZBED1] , protein stability index observed: 4.97

Form field protein stability index, entry RSEALAVDGAGKPGAEEAQDPEGK [CHGA] : 5.61

Entry APVILVGCQLDLRYADLEAVNRAR [RHOBTB2] ; protein stability index = 2.57

In plain terms, RQRLAKNDRGDHYHWKDLNRGINI [EFHC1] has a documented protein stability index of 2.96

Sample GIVLQGPALCFAAAIFSLFFVPLS [TMEM175] ; protein stability index observed: 2.89

Query QEHKTDEMHTALMEACMDGHVEVA [ANKRD17] yields protein stability index of 5.19

// field: protein stability index; key: PPGAEEPQAPPASRDEAALPELLL [RETREG3] ; value = 5.25

Reported protein stability index for AMELRHQGGEYLPKPEPPQLVLAY [FEM1A] was 2.32

// recorded protein stability index for LGGFRHKVTGVEYHNAGTQTVPKR [IQUB] : 4.03

* * *

Test: protein stability index of a GFP-peptide fusion (GPS, HEK-293T) (PSI 1-6); higher = more stable
Conditions: treatment: DMSO; c terminus: a fixed tail appended
PARAMETER: protein stability index
Returns: the value as a bare number; no unit string appended.

Reported protein stability index of MAAGQNGHEEWVGSAYLFVESSLD [TRADD] : 2.05

protein stability index reported for this sequence VRRSSRKSKAELQSEERKRIDELI [KMT5A] : 4.62

protein stability index recorded for this sequence, HSFFPDAFDYNSLSPTQRQKNFEL [SMTNL2] , is 3.35

The sequence listed as YRVSDVTKAGHSLELIEPLIKFQV [VDR] shows protein stability index equal to 1.99

Field protein stability index (entry QSGRDLQQYQSQAKQLFRKLNEQS [SEC22B] ) reads 3.72

Recorded protein stability index (sequence SQNIQEDDLQQLQLFTEYGRLAMD [ATL3] ): 4.3

Documented protein stability index of KQWGPLEREPVRGQCLDSTDQLEF [RTN2] : 4.45

Recorded result, CQQNMIQELIETNQQLRNELQLEQ [CEP70] , protein stability index: 4.12

Data point: AANKAVKCAEVIIPLLSSVNVSDR [ANKRD44] ; protein stability index = 2.9

Form field protein stability index, entry HVLPAVLAEVAPVVTTEHILVSVA [PYCR3] : 2.65

Given item KQECLITTFQDVYFVSESFEDAKE [TPH1] , the value recorded as its protein stability index is 4.08

Sure, the documented protein stability index for GAPTSLQTEPQDRSPAPMSCDKST [BCL2L11] is 5.36

// PGYLPYSPEPPSLYGALNPQYEFK [IRX6] : protein stability index value = 2.87

* * *

Test: protein stability index of a GFP-peptide fusion (GPS, HEK-293T) (PSI 1-6); higher = more stable
Conditions: treatment: MLN4924 1 uM, 8 h; c terminus: a fixed tail appended
Use 4 as the dividing line for protein stability index, with the line itself on the 1 side and lower values as 0.

For this sequence, is measured protein stability index 4 or higher? SPNFGFMGQLLQYESEILPSTPNP [DUSP5] 0

Please check the record HCPDCGQQWFPSLELGHWLYQTEL [TOR1AIP2] and state if its protein stability index is at or above 4. 0

Could you please find out whether KNIIHKTSGKRYVYRFVCDLQNLL [ETS2] has protein stability index that meets 4 or exceeds it? 0

Determine whether this sequence has protein stability index no lower than 4: EFPADISSITEAVPSESEPPALQN [NFE2L1] 1

# bool: protein stability index of FSQETVMKFVPRYSLVLELSDSGA [APMAP] >= 4 0

Is the recorded value of protein stability index equal to or greater than 4 for this sequence? GDLAYRRQEYQKALQEYSSISEKL [C8orf76] 1

Exam item: decide whether the reported protein stability index for KKQLADETLLKVDLENRCQSLTED [LMNB1] is at least 4. 1

Exam item: decide whether the reported protein stability index for SLVQLQASHQQQVLPPRQPSALVP [MYBL2] is at least 4. 0

Item LTSQNIEIKLVSDVTADSKVLEAL [PLD5] with protein stability index of 4 or above? 0

Would you say KSGEEAVTVLEDLEKGLEPEPQVP [ZNF232] shows protein stability index at minimum 4? 1

Record KIGVGAMTWSPLACGIVSGKYDSG [KCNAB2] ; criterion: protein stability index no lower than 4. Met? 0

Hi, just wondering whether VNDKRRKKSGEKEQHISKCKKAFR [KMT2E] shows protein stability index of 4 or higher. 0

Entry PQPLSFKEPPLLLGVLHPNTKLRQ [APMAP] : is its protein stability index no less than 4? 0

Is reported protein stability index greater than or equal to 4 here: FFNTLHVGGTIRTCQKFLIQYNRR [POP5] 0

Test whether the sequence KSKAELQSEERKRIDELIESGKEE [KMT5A] records protein stability index of 4 or higher. 1

Evaluate QYQYERYGAVELSGAGRRKNATRE [IRX6] : protein stability index at minimum 4? 1

Given the entry FRQLCYQETPGPREALTRLQELCY [ZSCAN9] , answer whether its protein stability index meets or surpasses 4. 0

Please tell me: is the sequence EEEEDDLSELPPLEDMGQPPAEEA [FKBP8] at or over 4 in terms of protein stability index? 1

Identify whether the reported protein stability index of the following sequence is 4 or greater: LIGGLEAQLSELRCEMEAQNQEYK [KRT15] 1

Could you tell me if the measured protein stability index of DIYYNNMEEVCGGEKPYLSPDILE [ATL3] reaches 4 or more? 0

Check if protein stability index >= 4 (inclusive). Item: SSTCGQLASYPLALVRTRMQAQAS [SLC25A25] 0

Exam item: decide whether the reported protein stability index for STSLPDPGDFDRNVPRICGVCGDR [VDR] is at least 4. 1

Tell me whether protein stability index is at least 4 here: EDVPLAAKLVDLPCVIESLRTLDK [TAF7L] 0

Check if protein stability index >= 4 (inclusive). Item: LRREPSERLTAPEILLHPWFESVL [TRIB1] 0

Confirm if protein stability index reported for the sequence FEFEVRVCDSCHEAITDEERAPTA [WDFY2] is 4 or above. 0
